target: UniProtKB Q99685
pIC50: −log10 of the molar value.
Quick rule: pIC50 of at least 7 means 1.0, below that means 0.0.

>>> group("O=C1CCC(CCC(=O)N2C[C@@H]3CN(Cc4ccc(C(F)(F)F)cc4F)C[C@H]3C2)N1 (single isomer, unassigned; (-))")
0.0
>>> group("CN(c1ccccc1)c1ccc(C2CN(C(=O)CC[C@@H]3COC(=O)N3)C2)cc1")
1.0
>>> group("CS(=O)(=O)c1cc(Cl)ncc1-c1ccc(C2CN(C(=O)CC[C@@H]3COC(=O)N3)C2)cc1")
1.0
>>> group("O=C1CCC(CCC(=O)N2CC(c3ccc(CC(F)(F)F)cc3)C2)N1 (single isomer, unassigned) [Example 7]")
0.0
>>> group("O=C1N[C@H](CCC(=O)N2CC(c3ncc(-c4ccc(Cl)cc4F)cn3)C2)CO1")
1.0
>>> group("O=C1N[C@H](CCC(=O)N2CC3(CC(Cc4ccc(C(F)(F)F)nn4)C3)C2)CO1")
0.0
>>> group("CC(C)c1ccc(N(C)c2ccc(C3CN(C(=O)CC[C@@H]4COC(=O)N4)C3)cn2)cc1")
1.0
>>> group("CC1(O)CN(c2ccc(C3CN(C(=O)CC[C@@H]4COC(=O)N4)C3)cn2)C1")
0.0
>>> group("O=C1N[C@H](CCC(=O)N2CC(c3ccc(N(CC4CC4)c4ccccc4)nc3)C2)CO1")
1.0
>>> group("O=C(CCCc1cnn[nH]1)N1CC(c2ccc(N3CCC(C(F)(F)F)C3)nc2)C1 (racemic)")
0.0
>>> group("CS(=O)(=O)c1ccc(C(c2ccccc2)C2CCN(C(=O)CC[C@@H]3COC(=O)N3)CC2)cc1 (single isomer, unassigned) [Example 83]")
1.0
>>> group("COc1ccc(N(C)c2ccc(C3CN(C(=O)CC[C@@H]4COC(=O)N4)C3)cn2)nc1")
0.0
>>> group("O=C1N[C@H](COC(=O)N2CC(c3ccc(Oc4ccccc4Cl)nc3)C2)CO1")
1.0
>>> group("CC(C)(O)C1CN(c2ccc(C3CN(C(=O)CC[C@@H]4COC(=O)N4)C3)cn2)C1")
0.0
>>> group("O=C1N[C@H](CCC(=O)N2CC(c3ccc(N4CCC(C(F)(F)F)C4)cc3)C2)CO1 (some centres unmarked)")
1.0
>>> group("O=C1N[C@H](CCC(=O)N2CC(c3ccc(-c4ccc(Cl)cc4Cl)cn3)C2)CO1")
1.0
>>> group("O=C1N[C@H](CCC(=O)N2CC(c3ccc(-c4cnc(C(F)(F)F)cn4)cc3)C2)CO1")
1.0
>>> group("O=C1N[C@H](CCC(=O)N2CC3(CC(Cc4ccc(C(F)(F)F)nc4)C3)C2)CO1")
1.0
>>> group("O=C1N[C@@H](CCC(=O)N2CC(c3ccc(-c4ccc(F)cc4F)cc3)C2)CO1")
0.0
>>> group("CS(=O)(=O)c1cc(F)ccc1CC1CC2(C1)CN(C(=O)CC[C@@H]1COC(=O)N1)C2")
1.0
>>> group("O=C1N[C@H](CCC(=O)N2CC(OCc3ccc(C(F)(F)F)cc3F)C2)CO1")
1.0

---

Below are log10 IC50 values measured for MAGL (Homo sapiens, UniProt Q99685).
assay.metric: log10 IC50 (log10 of the value in µM)

>>> observed_result("CS(=O)(=O)c1ccc(-c2cnc(C3CN(C(=O)CC[C@@H]4COC(=O)N4)C3)cn2)c(Cl)c1")
-1.15
>>> observed_result("N#CCS(=O)(=O)c1ccc(C2CN(C(=O)CC[C@@H]3COC(=O)N3)C2)cc1")
-1.24
>>> observed_result("O=C1CCC(CCC(=O)N2CC(c3ccc(C4(C(F)(F)F)CC4)cc3)C2)N1 (single isomer, unassigned; (-)) [Example 5]")
-0.20
>>> observed_result("O=C1N[C@H](CCC(=O)N2CC3(CC(Cc4cccc(S(=O)(=O)C(F)(F)F)c4)C3)C2)CO1")
-2.70
>>> observed_result("CC(C)(Oc1ccc(C2CN(C(=O)CC[C@@H]3COC(=O)N3)C2)cc1)C(F)(F)F")
-3.00
>>> observed_result("O=C1N[C@H](COC(=O)N2CC(c3ccc(Oc4ccc(F)cc4)cc3)C2)CO1")
-2.40
>>> observed_result("O=C(CC(O)Cc1cnn[nH]1)N1CC(c2ccc(C3(C(F)(F)F)CC3)cc2)C1 (stereo not drawn)")
-0.91
>>> observed_result("O=C1N[C@H](CCC(=O)N2CC(NCc3cc(C(F)(F)F)ccc3F)C2)CO1")
-0.55
>>> observed_result("O=C1N[C@H](CCC(=O)N2CC(c3ccc(N4CCC(C(F)(F)F)C4)nc3)C2)CO1 (single isomer, unassigned)")
-1.80
>>> observed_result("O=C1CCC(CCC(=O)N2CC(c3ccc(-c4ccc(F)cc4F)cc3)C2)N1 (single isomer, unassigned; (+))")
-2.30
>>> observed_result("O=C1N[C@H](CCC(=O)N2CC(c3ccc(-c4nc(C5CC5)n[nH]4)cc3)C2)CO1")
-0.45
>>> observed_result("O=C1NCC(CCC(=O)N2CC3(CC(Cc4ccc(C(F)(F)F)nc4)C3)C2)N1 (stereo not drawn)")
0.35
>>> observed_result("O=C(CCCc1cnn[nH]1)N1CC(c2ccc(C3(C(F)(F)F)CC3)cc2)C1")
-1.68
>>> observed_result("CS(=O)(=O)c1ccc(C(c2ccccc2)C2CCN(C(=O)CC[C@@H]3COC(=O)N3)CC2)cc1 (single isomer, unassigned) [Example 84]")
-0.53
>>> observed_result("O=C1N[C@H](CCC(=O)N2CC(c3ccc(N4CCC(O)(C(F)(F)F)C4)nc3)C2)CO1 (stereo partly drawn)")
-0.86
